Provenance of the data: PubChem BioAssay (NCI)

# Test Method Notes: NCI Yeast Anticancer Drug Screen. Data for the cln2 rad14 strain (AID 165);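 further: 0% = growth equal to vehicle treated cultures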
# Details: S. cerevisiae cln2 rad14 strain, at 50.0 µM, stronger effect = higher value
# Protocol: Growth inhibition of yeast strains with defined genetic alterations is measured as a screen for potential anti-cancer activity. Selected strains with alterations in DNA damage repair or cell cycle control were exposed to compounds and growth inhibition was measured relative to vehicle treated controls. The strain used in this assay is cln2 rad14
About 79,000 compounds went through this panel and 15% of them were active in at least one assay; those are over-represented in the sample as a whole. Calls of active or inactive are those of the source. No stated cut-off is given here; in the data, active means growth inhibition above about 70%; inactive means the rest.
Property Name: growth inhibition

Here is how some compounds turned out for growth inhibition.
Compound	Property Name	Value
Cc1nc(Cl)c(C)c(Cl)n1	growth inhibition	5.2% (inactive)
CC(C)/C(Cl)=N/OC(=O)Nc1ccc(Cl)c(Cl)c1	growth inhibition	84.8% (active)
CCOC(=O)CC1NC(=O)CNC1=O (stereo unspecified)	growth inhibition	-5% (inactive)

Bench note: what growth inhibition did CC(=O)Nc1c(I)c(C(=O)NC2C(O)OC(CO)C(O)C2O)c(I)c(N(C)C(C)=O)c1I (stereo unspecified) show?
-21.6% (inactive)

Do the same for COC1/C=C\C=C(/C)C(=O)Nc2cc3nc4cccc(Br)c4oc-3c(c2=O)CC(C)CC(OC)C(O)C(C)/C=C(\C)C1OC(N)=O (stereo unspecified) please
21.9% (inactive)

Further, for `Nc1ccc2[nH]c(=S)sc2c1` ?
-1.6% (inactive)

---

# Test Method Notes: NCI Yeast Anticancer Drug Screen. Data for the mlh1 rad18 strain (AID 175)
# Details: S. cerevisiae mlh1 rad18 strain growth inhibition; at 50.0 µM; stronger effect = higher value
Compounds without any hit were thinned out: in the full panel of roughly 79,000, 15% have a hit.
Rule: growth inhibition of -10% or more gives met; anything lower gives not met.

Reference set, count: 4
Compound	Label Class
COC(=O)/C=C/CCBr	not met
O=C(O)C1C(c2ccccc2)CC(=O)N1c1ccc(Cl)cc1 (stereo unspecified)	met
CCCCCCCOC(=O)C(N)c1ccccc1 (stereo unspecified)	met
CC1(Cn2ccc(=O)[nH]c2=O)CC(C2(C)OCCO2)C(=O)O1 (stereo unspecified)	not met

Does growth inhibition meet or surpass -10% for O=C(c1ccccc1)C(c1ccccc1)C1(O)C(=O)Nc2c(Cl)ccc(Cl)c21 (stereo unspecified) ?
not met

Next record, please: `Nc1ncnc(Nc2ccc(S(=O)(=O)O)cc2)n1`
not met

Let us now turn to C=C1[C@@H]([C@@]2(C)C=CC(=O)C(C)(C)[C@@H]2CC(=O)OC)CC[C@@]2(C)C(c3ccoc3)OC(=O)[C@H]3O[C@]132 (stereo partly specified)
not met

And for `O=C(O)C(=O)Cc1ccc(Br)cc1[N+](=O)[O-]` ?
met

Then what about the compound N#CC1CCCCC(=O)N1 (stereo unspecified) ?
met

Can you handle `O=C(O)C(SSC(C(=O)O)(c1ccccc1)c1ccccc1)(c1ccccc1)c1ccccc1` next?
met

// query: `O=[N+]([O-])c1cccc(S(=O)(=O)SSS(=O)(=O)c2cccc([N+](=O)[O-])c2)c1`
met

---

Recorded growth inhibition values for a group of compounds are listed next.
# Test Method Notes: NCI Yeast Anticancer Drug Screen. Data for the cln2 rad14 strain (AID 165);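 further: 0% = growth equal to vehicle treated cultures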
# Details: S. cerevisiae cln2 rad14 strain, at 50.0 µM, stronger effect = higher value
Compounds without any hit were thinned out: in the full panel of roughly 79,000, 15% have a hit.
Your answer is read as %, so omit the unit and give the number.

Here are 5 compounds together with their reported answers.
Compound	Readout Unit	Value
Cc1cc(C(=O)O)cc(C)c1N(C)Cc1cnc2nc(N)nc(N)c2n1	%	20.7
CC(=O)Nc1ccc2nc(/C=C/c3ccc(N(C)C)cc3)c(=O)oc2c1	%	16.7
Cn1c(N)cc(=O)nc1N	%	10.7
O=C(O)/C(=C\c1cccc(O)c1)c1ccccc1	%	-6.65
O=[n+]1c(-c2ccccc2)c(-c2ccccc2)n([O-])c2cc3ccccc3cc21	%	-24.6

What value of measured growth inhibition is listed for `Cn1c(=O)c2[nH]c(SC3CCCCC3)nc2n(C)c1=O` ?
11.3

Consider next the compound `O=C(O)c1cnc(Cl)c(Br)c1` in the same way.
-17.9

// same read-out, input: `ClC(Cl)(Cl)SSC(=Nc1ccccc1)SSC(Cl)(Cl)Cl`
-0.8

Note, next up: `CC(=O)c1cccc(NCn2nnc3ccccc32)c1`
-4.25

And then `Cc1nnc2ncccn12` , what is it?
-0.1

---

Each item that follows carries a reported growth inhibition.
# Test Method Notes: NCI Yeast Anticancer Drug Screen. Data for the mlh1 rad18 strain (AID 175)
# Details: S. cerevisiae mlh1 rad18 strain growth inhibition; at 50.0 µM; stronger effect = higher value
Compounds without any hit were thinned out: in the full panel of roughly 79,000, 15% have a hit.
Please give a number only; it is taken to be in %.

Solved entries (count: 5):
Compound	Value
COc1ccc(-c2cc(-c3cc(-c4ccc(OC)cc4)on3)no2)cc1	-1.05
CC1NNC(=S)NN1	11.8
CCCCNC(=O)NCCCC	-0.15
COC(=O)[C@H]1[C@H]2C[C@@H]3c4[nH]c5ccccc5c4CCN3C[C@H]2C[C@@H](O)[C@@H]1OC(=O)c1cc(OC)c(OC)c(OC)c1	20.9
O=C(NC1CC12c1ccccc1-c1ccccc12)Oc1ccc2ccccc2c1 (configuration not stated)	57.4

Form field: reported growth inhibition of C1CCC(C2CCC(C3CCCCC3)CC2)CC1 (configuration not stated)
6.15

Param item: C=C(C)C12CC3CC(/C(=N/O)C(C1)/C3=N\O)[C@@]2(C)O (some centres not stated)
-59

---

# Test Method Notes: NCI Yeast Anticancer Drug Screen. Data for the rad50 strain (AID 155);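 further: 0% = growth of vehicle-only cultures of the same strain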
# Details: S. cerevisiae rad50 strain growth inhibition; at 50.0 µM
This is part of a sample that, as a whole, favours compounds with a hit. Of some 79,000 tested, about 15% had one in any assay. Active and inactive are the calls of the source. Rule as the data show it: active = growth inhibition above about 70%; inactive = the rest.
Choose the fitting class; nothing outside yes for active, no for inactive is accepted.

Molecule	Label Class
CCCCCCCC/C=C\CCCCCCC(F)C(=O)O (stereo not given)	no
Cc1c2c(cc3c1[nH]c1ccccc13)C(=O)c1ccccc1C2=O	yes
O=C1C(OC(=O)c2ccccc2)=C(c2ccc(O)cc2)C(=O)C(OC(=O)c2ccccc2)=C1c1ccc(O)cc1	no

How did this test come out for COC(=O)C1(CC(=O)c2ccc(Cl)cc2)NC(=S)NC(=O)C1C#N (stereo not given) ?
no

And for `CN(C)c1ccc(/C=C/c2ccnc3ccc(Br)cc23)cc1` ?
no

---

# Test Method Notes: NCI Yeast Anticancer Drug Screen. Data for the mlh1 rad18 strain (AID 175)
# Details: S. cerevisiae mlh1 rad18 strain growth inhibition; at 50.0 µM; stronger effect = higher value
Compounds without any hit were thinned out: in the full panel of roughly 79,000, 15% have a hit.
Property Name: growth inhibition (%)
Use % as the unit, but write only the number.

Molecule	Property Name	Readout Unit	Value
O=C(CC(c1ccccc1)C(Sc1ccccc1)(Sc1ccccc1)Sc1ccccc1)c1ccccc1 (stereo unspecified)	growth inhibition	%	7.25
S=c1[nH]c2ccccc2n2cccc12	growth inhibition	%	19.2
COc1cc([N+](=O)[O-])cc2c1OC1(C=C2)Oc2ccccc2N1C (stereo unspecified)	growth inhibition	%	-17.9
COc1cc2c(cc1OC)[C@H]1Cc3cc(OC)c(OC)cc3[C@@H](C2)N1C(C)=O	growth inhibition	%	-3.6
O=c1c2c(c(=O)c(=O)c1=O)Nc1ccccc1N2	growth inhibition	%	15.7
O=C(Cc1ccccc1)NN1C(=O)/C(=C\c2cccc(O)c2)SC1=Nc1ccccc1	growth inhibition	%	-16.9
Oc1ccccc1C=Nc1ccc(Cl)cc1	growth inhibition	%	6.85
CCOC(=O)NC(Nc1ccc(F)cc1F)(C(F)(F)F)C(F)(F)F	growth inhibition	%	1.4
CC(=O)c1ccc(OC(=O)Nc2ccc(Cl)cc2)cc1	growth inhibition	%	12.9
C=CCNC(=S)Nc1ccc(OC(=O)NC2CCCCC2)cc1	growth inhibition	%	31.9

Requested field: growth inhibition. Item: `Cc1cnc(SC(C)(C)C)c(C)c1`
-10.5

---

Reported growth inhibition values for the following compounds.
# Test Method Notes: NCI Yeast Anticancer Drug Screen. Data for the bub3 strain (AID 167)
# Details: S. cerevisiae bub3 mutant strain, at 50.0 µM, stronger effect = higher value
Compounds without any hit were thinned out: in the full panel of roughly 79,000, 15% have a hit.
Number in %, nothing else.

Compound	growth inhibition (%)
CC(CO)(NC(=O)c1ccccc1)C(=O)O (configuration not stated)	3.45
O=C(Nc1ccc(CCc2ccc(NC(=O)C34CC5CC(CC(C5)C3)C4)cc2)cc1)C12CC3CC(CC(C3)C1)C2	-0.25
Cn1cc2c(=O)n(OS(=O)(=O)c3ccccc3)c(=O)[nH]c2n1	-5.2
CCOC(=O)NC(CC)CO (configuration not stated)	5.55

Quick check: growth inhibition of `CCOC(=O)NC(Nc1ccc(Cl)cn1)(C(F)(F)F)C(F)(F)F` ?
-21.6

Field entry: Cc1cc(OC(C)C)cc(C)c1C(=O)OCC(C)CN1CCCC1 (configuration not stated)
-8.5

CC(c1cccc2ccccc12)/[N+]([O-])=C/c1ccccc1 (configuration not stated) , same question.
-37.4

// query: `Nc1ccccc1Nc1ccncc1`
-23.8

Now the compound `C=C1CN(C(=O)NCCCl)C1`
4.1

Also need `CCCc1cc2c(cc1CSc1ccccc1C(=O)O)OCO2` , thanks.
-7.6

Then this compound: `Cc1ccc2c(c1)C(=O)/C(=N/Nc1ccc(Cl)cc1)CCO2`
6.8

Record: `O=C(O)C(=O)/C=C(\O)c1ccc(Br)cc1`
36.4
